System: Vero E6 infected with SARS-CoV-2
Assay: morphology score (similarity to uninfected cells); higher = more like uninfected cells
Conditions: 24 h
Property: morphology score; scope: individual compounds
measured-endpoint: morphology score

• O=C(O)Cc1ccc(OCCNC[C@H](O)c2ccccc2)cc1 (10 µM) = -0.102
• CCCCCCCCCCCCCCC[C@@H](O)[C@@H](N)CO [safingol] (10 µM) = -0.197
• CS(=O)(=O)c1ccc([C@@H](CC2CCCC2)C(=O)Nc2nccs2)cc1 (10 µM) = 0.0357
• Cc1ncc(C[n+]2csc(CCOP(=O)(O)OP(=O)(O)O)c2C)c(N)n1 [thiamine-pyrophosphate] (10 µM) = 0.112
• CN1C(=O)COc2c(C(=O)NC3CN4CCC3CC4)cc(Cl)cc21 (configuration not stated) [azasetron] (10 µM) = 0.143
• NC(=O)NCCN1CCN(c2cccc(C(F)(F)F)c2)CC1 [fluprazine] (10 µM) = 0.0715
• Cc1cccc2c1CC[C@H](CN1CCC(c3c(Cl)cccc3Cl)CC1)C[C@@H]2O (0.833333 µM) = 0.134
• CN1CCC(=C2c3ccccc3Sc3ccccc32)CC1 [pimethixene] (10 µM) = 0.373
• O=C(Nc1cccc(Nc2ncc(Br)c(NCCc3cnc[nH]3)n2)c1)N1CCCC1 (10 µM) = -0.00186
• CCOc1ccc2nc3cc(N)ccc3c(N)c2c1 [ethacridine-lactate-monohydrate] (10 µM) = 0.0887
• Cc1cc(C)c(N)c(C#Cc2cccc(F)c2)n1 (10 µM) = 0.221
• Fc1ccc(C(c2ccc(F)cc2)N2CCN(C/C=C/c3ccccc3)CC2)cc1 [flunarizine] (10 µM) = 0.364

###

Reported morphology score values follow for various molecules
System: Vero E6 infected with SARS-CoV-2
Test: morphology score (similarity to uninfected cells); higher = more like uninfected cells
Details: 24 h
measured-endpoint: morphology score

* CC(C)(N)C(=O)N[C@H](COCc1ccccc1)C(=O)N1CCC2(CC1)CN(S(C)(=O)=O)c1ccccc12 [ibutamoren] (10 µM) | -0.0834
* COc1ccccc1C1(O)CCN(CCCn2c3ccccc3c3ccccc32)CC1 (0.833333 µM) | 0.0278
* CC(C)(C)NCC(O)COc1ccc(NC(=O)NC2CCCCC2)cc1 (configuration not stated) [talinolol] (10 µM) | 0.0728
* CCC(=O)O[C@]1(C(=O)COC(C)=O)CC[C@H]2[C@@H]3C[C@H](C)C4=CC(=O)C=C[C@]4(C)[C@H]3[C@@H](O)C[C@@]21C [methylprednisolone-aceponate] (10 µM) | 0.0786
* CCOC(=O)[C@H](CCc1ccccc1)N[C@@H](C)C(=O)N1[C@H](C(=O)O)C[C@@H]2CCC[C@@H]21 [ramipril] (10 µM) | 0.0476
* O=C1NC(=O)c2c1c(-c1ccccc1)cc1[nH]c3ccc(O)cc3c21 (0.833333 µM) | 0.685
* COc1cc(-n2c(=S)[nH]c3ccccc3c2=O)c(Cl)cc1Cl [mdivi-1] (10 µM) | -0.0304
* COC(=O)C1=C(C)NC(C)=C(C(=O)OCCSc2ccccc2)[C@@H]1C (10 µM) | 0.0793
* CC(=O)Oc1ccccc1C(=O)O [aspirin] (10 µM) | -0.027
* Cc1cccc(C)c1NC(=O)/N=C1\CCCN1C [xilobam] (10 µM) | 0.132
* NS(=O)(=O)c1cc2c(cc1Cl)N=CNS2(=O)=O [chlorothiazide] (10 µM) | -0.179
* COc1cc2c(cc1OC)[C@@]13CCN4CC5=CCO[C@H]6CC(=O)N2[C@H]1[C@H]6[C@H]5C[C@H]43 [brucine] (10 µM) | 0.0385

###

Test system: Vero E6 infected with SARS-CoV-2
Assay: inhibition of SARS-CoV-2 cytopathic effect; higher = more antiviral protection, active = above 15
Details: 10000 nM; 48 h
measured-endpoint: inhibition of SARS-CoV-2 cytopathic effect (%)

- CC(C)c1cc(CNc2nc(Nc3cc(C4CC4)[nH]n3)cc(N3CCN(C)CC3)n2)on1: -15
- CC(C)C(=O)SCCCCC[C@H](NC(=O)OC(C)(C)C)C(=O)NC12CC3CC(CC(C3)C1)C2: -6.65
- Cc1ccc(NC2=NCCN2)c(Cl)c1 [tolonidine]: 0.42
- CC(C)CN(C[C@@H](O)[C@H](Cc1ccccc1)NC(=O)O[C@H]1CO[C@H]2OCC[C@H]21)S(=O)(=O)c1ccc(N)cc1 [darunavir]: -1.15
- CCC1(c2ccccc2)C(=O)N(COC)C(=O)N(COC)C1=O [eterobarb]: 0.84
- Nc1nc(O)c2nc(Br)n([C@@H]3O[C@@H]4COP(=O)(O)O[C@H]4[C@H]3O)c2n1 [8-bromo-cGMP]: 1.61
- CCOC(=O)Nc1ccc(NCc2ccc(F)cc2)cc1N [Retigabine]: 1.01
- COc1cc(OC)cc(-c2ccc3c(-c4ccc(F)cc4)n[nH]c3n2)c1: -0.11
- O=C1CCCN1CC#CCN1CCCC1 [oxotremorine-sesquifumarate]: 0.96
- Cc1nn(C)c2c1C(c1ccc(C(F)(F)F)cc1)C(C#N)=C(N)O2 (stereo unspecified): 2.56
- Cc1nc2ccc(-n3ncc(C(=O)c4cc5ccccc5[nH]4)c3N)cc2[nH]1: -0.86
